Measured % Viability values are reported for all entries that follow.
System: Human CD34+ stem and progenitor cells
Assay Notes: Viability of CD34+ cells after ex vivo treatment with agent
Type: cell-based
Parameters: concentration or dose not given beside the values
Conditions Used: Table 2; human CD34+ cells from mobilized peripheral blood, 24 hours at 37° C. with agent
Structures can show the parent of a compound that is named as a salt.

As a guide, the following entries are already answered.
{"Compound": "OCCN1CCN(CCCN2c3ccccc3Sc3ccc(C(F)(F)F)cc32)CC1", "Readout Value": "86%"}
{"Compound": "N#Cc1ccc(C(c2ccc(C#N)cc2)n2cncn2)cc1", "Readout Value": "81.3%"}
{"Compound": "CN[C@@H]1[C@H](O[C@H]2[C@H](O[C@H]3[C@H](O)[C@@H](O)[C@H](NC(=N)N)[C@@H](O)[C@@H]3NC(=N)N)O[C@@H](C)[C@]2(O)CO)O[C@@H](CO)[C@H](O)[C@H]1O [Dihydrostreptomycin sulfate]", "Readout Value": "84.5%"}
{"Compound": "Nc1nc(F)nc2c1ncn2[C@@H]1O[C@H](CO)[C@@H](O)[C@@H]1O", "Readout Value": "82.5%"}
{"Compound": "Nc1ccn([C@@H]2O[C@H](CO)[C@@H](O)C2(F)F)c(=O)n1", "Readout Value": "81.4%"}

Please state recorded % Viability (tested on Human CD34+ stem and progenitor cells) of CNCCCC1c2ccccc2C=Cc2ccccc21
79.4%

Similarly, CNC(C)CCC=C(C)C.CNC(C)CCC=C(C)C.O=C(O)[C@@H](O)[C@H](O)[C@H](O)[C@@H](O)C(=O)O [Isometheptene mucate] ?
83.7%

###

Measured % Viability values are reported for all entries that follow.
Test system: Human CD34+ stem and progenitor cells
Assay Notes: Viability of CD34+ cells after ex vivo treatment with agent
Type: cell-based
Parameters: concentration or dose not given beside the values
Conditions Used: Table 1; human CD34+ cells from mobilized peripheral blood, 24 hours at 37° C. with agent
Write the answer as a number in %, unit excluded.

As a guide, the following entries are already answered.
{"Compound": "OCCN1CCN(CCCN2c3ccccc3Sc3ccc(C(F)(F)F)cc32)CC1 [Fluphenazine]", "Unit Text": "%", "% Viability": 86}
{"Compound": "C[C@@H]1C[C@H]2[C@@H]3C[C@H](F)C4=CC(=O)C=C[C@]4(C)[C@@]3(Cl)[C@@H](O)C[C@]2(C)[C@H]1C(=O)COC(=O)C(C)(C)C [Clocortolone pivalate]", "Unit Text": "%", "% Viability": 84.9}
{"Compound": "C[C@H]1C[C@H]2[C@@H]3CCC4=CC(=O)C=C[C@]4(C)[C@@]3(F)[C@@H](O)C[C@]2(C)[C@@]1(O)C(=O)CO [Betamethasone]", "Unit Text": "%", "% Viability": 86.8}
{"Compound": "C=CC(N)CCC(=O)O (stereo not shown) [Vigabatrin]", "Unit Text": "%", "% Viability": 67}
{"Compound": "CC1(C)O[C@@H]2C[C@H]3[C@@H]4C[C@H](F)C5=CC(=O)C=C[C@]5(C)[C@@]4(F)[C@@H](O)C[C@]3(C)[C@]2(C(=O)CO)O1 [Fluocinolone acetonide]", "Unit Text": "%", "% Viability": 82.9}
{"Compound": "NC(=O)N/N=C/c1ccc([N+](=O)[O-])o1 [Nitro fural]", "Unit Text": "%", "% Viability": 87.2}

Please state recorded % Viability (tested on Human CD34+ stem and progenitor cells) of CCC(=O)O[C@]1(C(=O)CCl)[C@@H](C)C[C@H]2[C@@H]3CCC4=CC(=O)C=C[C@]4(C)[C@@]3(F)[C@@H](O)C[C@@]21C [Clobetasol propionate]
83

###

Tested on: Human CD34+ stem and progenitor cells
Assay Notes: Viability of CD34+ cells after ex vivo treatment with agent
Type: cell-based
Conditions Used: Table 2; human CD34+ cells from mobilized peripheral blood, 24 hours at 37° C. with agent
Reported Metric: % Viability (%)
Write the answer as a number in %, unit excluded.

{"Compound": "Nc1ccc(C(=O)O)c(O)c1", "% Viability (%)": 85.3}
{"Compound": "CN(C)CCC=C1c2ccccc2C=Cc2ccccc21", "% Viability (%)": 72.7}

Please examine the following record next.
Could you tell me which % Viability is on file for Cc1scc2c1N(C(=O)CN1CCN(C)CC1)c1ccccc1NC2=O [Telenzepine] ?
88.9

Reference source: patent US20250333702A1
